Biological target: Potassium channel subfamily K member 10 (Homo sapiens) (UniProt P57789)
Sequence (whole entry): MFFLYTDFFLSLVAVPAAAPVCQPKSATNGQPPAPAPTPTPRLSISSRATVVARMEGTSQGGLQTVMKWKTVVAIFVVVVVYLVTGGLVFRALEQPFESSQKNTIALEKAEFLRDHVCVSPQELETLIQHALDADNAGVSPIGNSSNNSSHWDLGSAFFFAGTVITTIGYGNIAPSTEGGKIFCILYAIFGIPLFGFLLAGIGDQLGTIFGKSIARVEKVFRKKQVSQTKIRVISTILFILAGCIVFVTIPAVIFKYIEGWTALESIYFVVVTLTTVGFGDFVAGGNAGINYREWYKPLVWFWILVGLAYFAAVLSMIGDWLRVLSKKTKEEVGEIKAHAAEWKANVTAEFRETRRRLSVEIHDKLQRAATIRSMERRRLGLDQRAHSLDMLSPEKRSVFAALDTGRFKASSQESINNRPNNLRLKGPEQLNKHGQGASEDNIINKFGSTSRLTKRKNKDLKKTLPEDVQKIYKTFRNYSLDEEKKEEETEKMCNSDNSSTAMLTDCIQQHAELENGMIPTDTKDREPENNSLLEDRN
Assay: Activation of human TREK2 at 10 uM by thallium flux mobilization assay relative to control
parameterMeasured: Activity (%)
# output: bare number, implied unit %

| smilesData | assaySystem | displayUnit | Activity |
| --- | --- | --- | --- |
| O=C(Nc1ccc2c(c1)CCCC2)c1ccccc1-c1nnn[nH]1 | Potassium channel subfamily K member 10 (Homo sapiens) (UniProt P57789) | % | 1 |
| O=C(Nc1ccccc1-c1nnn[nH]1)c1cccc2c1CCCC2 | Potassium channel subfamily K member 10 (Homo sapiens) (UniProt P57789) | % | 2 |
| O=C(Nc1cccc2c1CCCC2)c1ccccc1-c1nnn[nH]1 | Potassium channel subfamily K member 10 (Homo sapiens) (UniProt P57789) | % | 1 |

With those in mind, consider the next compound.
// query Activity value for entry O=C(Nc1ccccc1-c1nnn[nH]1)c1ccc2c(c1)CCCC2
21

Value source: ChEMBL document CHEMBL4665650
